Target: Arabidopsis thaliana SHMT
Test: SHMT activity assay (ED50 SHMT), coupled with N5,N10-CH2-THF dehydrogenase, NADH at 340 nm
Format: biochemical
Conditions: Table 2; values given as upper bounds
Protocol: Determination of the ED50 SHMT was carried out as described hereinunder. Purification of Arabidopsis thaliana SHMT The following buffers were used during the purification protocol: […] The rate of N5,N10-CH2-THF formation catalyzed by SHMT was monitored at 340 nm by coupling with excess N5,N10-CH2-THF dehydrogenase, which converts NAD+to NADH. […] Inhibition of initial velocity was determined by adding various inhibitors of the SHMT reaction and monitored as described. […]
pEC50: −log10 of the molar value.
Form field: pEC50 (one value per entry).

Take a look at these entries with their results.
# MOLECULE, TGT, pEC50
measured = [
    ("CCCCCCOc1ccc(C2(CC)C(C#N)=C(N)Oc3[nH]nc(C)c32)cc1 (stereo not drawn)", "Arabidopsis thaliana SHMT", "> 5.00"),
    ("Cc1n[nH]c2c1C(c1cc(Cl)cc(-c3cccc(-c4nnn[nH]4)c3)c1)(C1CCC1)C(C#N)=C(N)O2 (stereo not drawn)", "Arabidopsis thaliana SHMT", "> 8.00"),
    ("COC(=O)Cc1ccc(-c2cc(C#N)cc(C3(C4CCC4)C(C#N)=C(N)Oc4[nH]nc(C)c43)c2)cc1 (stereo not drawn)", "Arabidopsis thaliana SHMT", "> 8.00"),
    ("CCC1(c2ccc(F)c(C(F)(F)F)c2)C(C#N)=C(N)Oc2[nH]nc(C)c21 (stereo not drawn)", "Arabidopsis thaliana SHMT", "> 6.00"),
    ("Cc1n[nH]c2c1C(c1cc(C#N)cc(-c3ccc(F)c(C(=O)O)c3)c1)(C1CCC1)C(C#N)=C(N)O2 (stereo not drawn)", "Arabidopsis thaliana SHMT", "> 8.00"),
    ("Cc1n[nH]c2c1C(c1cc(C#N)cc(N(C)CCC#N)c1)(C1CCC1)C(C#N)=C(N)O2 (stereo not drawn)", "Arabidopsis thaliana SHMT", "> 8.00"),
    ("Cc1n[nH]c2c1C(c1cc(C#N)cc(OCC(=O)O)c1)(C1CCC1)C(C#N)=C(N)O2 (stereo not drawn)", "Arabidopsis thaliana SHMT", "> 7.00"),
    ("CCCc1n[nH]c2c1C(CC)(c1cc(C(F)(F)F)cc(C(F)(F)F)c1)C(C#N)=C(N)O2 (stereo not drawn)", "Arabidopsis thaliana SHMT", "> 6.00"),
    ("CCC1(c2cc(F)cc(Br)c2)C(C#N)=C(N)Oc2[nH]nc(C)c21 (racemic)", "Arabidopsis thaliana SHMT", "> 7.00"),
    ("Cc1n[nH]c2c1C(c1cc(C#N)cc(N(C)C(=O)C(C)C)c1)(C1CCC1)C(C#N)=C(N)O2 (stereo not drawn)", "Arabidopsis thaliana SHMT", "> 8.00"),
]

# pEC50 measured on Arabidopsis thaliana SHMT for item Cc1n[nH]c2c1C(c1cc(Cl)cc(CCC#N)c1)(C1CCC1)C(C#N)=C(N)O2 (stereo not drawn) = > 8.00

# pEC50 measured on Arabidopsis thaliana SHMT for item COc1ccc(C2(C3CCC3)C(C#N)=C(N)Oc3[nH]nc(C)c32)cc1C(F)(F)F (stereo not drawn) = > 8.00

# pEC50 measured on Arabidopsis thaliana SHMT for item CCC1(c2ccc(OS(=O)(=O)c3ccc(Cl)cc3)c(C)c2)C(C#N)=C(N)Oc2[nH]nc(C)c21 (stereo not drawn) = > 5.00

# pEC50 measured on Arabidopsis thaliana SHMT for item CCC1(c2cc(Cl)cc(C#N)c2)C(C#N)=C(N)Oc2[nH]nc(COC)c21 (stereo not drawn) = > 6.00

# pEC50 measured on Arabidopsis thaliana SHMT for item CCCC1(c2cc(Br)cc(C#N)c2)C(C#N)=C(N)Oc2[nH]nc(COC)c21 (stereo not drawn) = > 6.00

* * *

Form field: EC50 (one value per entry).
molecular target: Arabidopsis thaliana SHMT; assay: SHMT activity assay (ED50 SHMT), coupled with N5,N10-CH2-THF dehydrogenase, NADH at 340 nm; format: biochemical; settings: Table 2; values given as upper bounds

Take a look at these entries with their results.
# MOLECULE, EC50
measured = [
    ("Cc1n[nH]c2c1C(c1cccc(C(F)(F)F)c1)(C(F)(F)F)C(C#N)=C(N)O2 (stereo not drawn)", "< 1000 nM"),
    ("COc1ccc(-c2cc(C#N)cc(C3(C4CCC4)C(C#N)=C(N)Oc4[nH]nc(C)c43)c2)cc1C(F)(F)F (stereo not drawn)", "< 10 nM"),
    ("COc1c(F)cc(-c2cc(C#N)cc(C3(C4CCC4)C(C#N)=C(N)Oc4[nH]nc(C)c43)c2)cc1F (stereo not drawn)", "< 10 nM"),
    ("CCCCC(=O)N(C)c1cc(C#N)cc(C2(C3CCC3)C(C#N)=C(N)Oc3[nH]nc(C)c32)c1 (stereo not drawn)", "< 10 nM"),
    ("Cc1n[nH]c2c1C(c1ccc(CCc3nnn[nH]3)c(Cl)c1)(C1CCC1)C(C#N)=C(N)O2 (stereo not drawn)", "< 10 nM"),
]

# EC50 of Cc1n[nH]c2c1C(c1cc(Cl)cc(Oc3cccc(F)c3)c1)(C1CCC1)C(C#N)=C(N)O2 (stereo not drawn) = < 100 nM

# EC50 of COc1cc(C(=O)O)cc(-c2cc(C#N)cc(C3(C4CCC4)C(C#N)=C(N)Oc4[nH]nc(C)c43)c2)c1 (stereo not drawn) = < 10 nM

# EC50 of Cc1n[nH]c2c1C(c1cc(C#N)cc(N(C)C(=O)CCCC(=O)O)c1)(C1CCC1)C(C#N)=C(N)O2 (stereo not drawn) = < 10 nM

* * *

Target: Arabidopsis thaliana SHMT
Test: SHMT activity assay (ED50 SHMT), coupled with N5,N10-CH2-THF dehydrogenase, NADH at 340 nm
Format: biochemical
Conditions: Table 2; values given as upper bounds
Procedure: Determination of the ED50 SHMT was carried out as described hereinunder. Purification of Arabidopsis thaliana SHMT The following buffers were used during the purification protocol: […] The rate of N5,N10-CH2-THF formation catalyzed by SHMT was monitored at 340 nm by coupling with excess N5,N10-CH2-THF dehydrogenase, which converts NAD+to NADH. […] Inhibition of initial velocity was determined by adding various inhibitors of the SHMT reaction and monitored as described. […]
pEC50: −log10 of the molar value.
ENDPOINT: pEC50

Take a look at these entries with their results.
# MOLECULE, pEC50
rows = [
    ("Cc1n[nH]c2c1C(CC(C)C)(c1cccc(Cl)c1)C(C#N)=C(N)O2 (stereo not drawn) [Compound 2.126.]", "> 6.00"),
    ("CCc1n[nH]c2c1C(CC)(c1cc(C(F)(F)F)cc(C(F)(F)F)c1)C(C#N)=C(N)O2 (stereo not drawn) [Compound 2.84.]", "> 7.00"),
    ("COC(=O)Cc1cccc(-c2cc(C#N)cc(C3(C4CCC4)C(C#N)=C(N)Oc4[nH]nc(C)c43)c2)c1 (stereo not drawn) [Compound 2.524]", "> 8.00"),
    ("COC(=O)c1cc(C(=O)OC)cc(-c2cc(C#N)cc(C3(C4CCC4)C(C#N)=C(N)Oc4[nH]nc(C)c43)c2)c1 (stereo not drawn) [Compound 2.549]", "> 7.00"),
    ("COc1n[nH]c2c1C(c1cc(Cl)cc(OCC#N)c1)(C1CCC1)C(C#N)=C(N)O2 (stereo not drawn) [Compound 2.444]", "> 7.00"),
]

# pEC50 of Cc1n[nH]c2c1C(c1cc(C#N)cc(OCc3nnn[nH]3)c1)(C1CCC1)C(C#N)=C(N)O2 (stereo not drawn) [Compound 2.475] = > 8.00

# pEC50 of Cc1n[nH]c2c1C(c1ccc(OCc3nnn[nH]3)c(Cl)c1)(C1CCC1)C(C#N)=C(N)O2 (stereo not drawn) [Compound 2.638] = > 8.00

# pEC50 of N#CC1=C(N)Oc2[nH]nc(C(F)F)c2C1(c1cccc(C(F)(F)F)c1)C1CCC1 (stereo not drawn) [Compound 2.175.] = > 6.00

# pEC50 of CCC1(c2ccc(Oc3ccc(C(F)(F)F)cc3Cl)c(C)c2)C(C#N)=C(N)Oc2[nH]nc(C)c21 (stereo not drawn) [Compound 2.23.] = > 5.00

* * *

target: Arabidopsis thaliana SHMT; assay: SHMT activity assay (ED50 SHMT), coupled with N5,N10-CH2-THF dehydrogenase, NADH at 340 nm; format: biochemical; settings: Table 2; values given as upper bounds
pEC50: −log10 of the molar value.
ENDPOINT: pEC50

Take a look at these entries with their results.
# COMPOUND, pEC50
rows = [
    ("Cc1n[nH]c2c1C(c1cc(Cl)cc(Br)c1)(C1CCC1)C(C#N)=C(N)O2 (stereo not drawn) [Compound 2.207.]", "> 8.00"),
    ("CCCC(=O)N(C)c1cc(C#N)cc(C2(C3CCC3)C(C#N)=C(N)Oc3[nH]nc(C)c32)c1 (stereo not drawn) [Compound 2.612]", "> 8.00"),
    ("Cc1n[nH]c2c1C(c1ccc(CCC#N)c(C#N)c1)(C1CCC1)C(C#N)=C(N)O2 (stereo not drawn) [Compound 2.647]", "> 8.00"),
    ("COc1ccc(C2(C(C)C)C(C#N)=C(N)Oc3[nH]nc(C)c32)cc1 (stereo not drawn) [Compound 2.167.]", "> 6.00"),
    ("COc1ccc(C2(C3CCCC3)C(C#N)=C(N)Oc3[nH]nc(C)c32)cc1Cl (stereo not drawn) [Compound 2.203.]", "> 6.00"),
]

# pEC50 measured on Arabidopsis thaliana SHMT for item Cc1n[nH]c2c1C(c1cc(Cl)cc(Oc3cc(F)c(O)c(F)c3)c1)(C1CCC1)C(C#N)=C(N)O2 (stereo not drawn) [Compound 2.596] = > 8.00

# pEC50 measured on Arabidopsis thaliana SHMT for item Cc1n[nH]c2c1C(c1cc(Cl)cc(-c3ccc(-c4nnn[nH]4)cc3)c1)(C1CCC1)C(C#N)=C(N)O2 (stereo not drawn) [Compound 2.493] = > 8.00

# pEC50 measured on Arabidopsis thaliana SHMT for item Cc1n[nH]c2c1C(c1cc(Cl)cc(-c3ccc(Cl)c(C(=O)O)c3)c1)(C1CCC1)C(C#N)=C(N)O2 (stereo not drawn) [Compound 2.557] = > 8.00

# pEC50 measured on Arabidopsis thaliana SHMT for item Cc1n[nH]c2c1C(c1ccc(OC(F)(F)F)cc1)(C(C)C)C(C#N)=C(N)O2 (racemic) [Compound 2.145.] = > 6.00

# pEC50 measured on Arabidopsis thaliana SHMT for item Cc1n[nH]c2c1C(c1cc(C#N)cc(-c3ccc(OCC(=O)O)cc3)c1)(C1CCC1)C(C#N)=C(N)O2 (stereo not drawn) [Compound 2.538] = > 8.00

# pEC50 measured on Arabidopsis thaliana SHMT for item Cc1n[nH]c2c1C(c1cc(C#N)cc(CC(=O)O)c1)(C1CCC1)C(C#N)=C(N)O2 (stereo not drawn) [Compound 2.627] = > 7.00
